Each recorded value in this set is attributed to PubChem BioAssay.

assay: reversal of MRP1-mediated doxorubicin resistance, pilot screen, H69AR cells, doxorubicin co-treatment (AID 601); conditions: H69AR cells + 2 uM doxorubicin, CellTiter-Glo, 72 h; at 10 µM; active compounds read high
Record form. Attribute: differential viability (reversal). Fill in for each entry.
Numbers only, in %.

Field: example entries. Status: answers known.
                                   molecule  number
0  COc1ccc(Oc2c(C)oc3cc(OC(=O)N4CCOCC4)ccc3c2=O)cc1   -0.51
1  CCN(CC)Cc1nc2c(c(=O)[nH]1)C1(CCCCC1)Cc1ccccc1-2   -18.9
2         Cc1cc(=O)n2[nH]c(COc3ccccc3)nc2n1      14
3  C=CCN1C(=O)/C(=C2\SC(N3CCOCC3)=NC2=O)c2cc(Br)ccc21   -4.46
4               O=C(O)CCN1C(=O)c2ccccc2C1=O   -1.81

Batch request: differential viability (reversal) for each of the following molecules.
1. Cc1cccc(-c2cc3nc4c(c(N5CCC6(CC5)OCCO6)n3n2)CCCC4)c1
2. Cc1ccc(NC(=O)Cn2cccc2)cc1Cl
3. C=CCN(C(=O)CNC(=O)c1ccco1)C(C(=O)NC1CCCCC1)c1ccccc1F (stereo not given)
4. Cc1cc(NC(=O)COC(=O)C2COc3ccccc3O2)no1 (stereo not given)
5. c1c2c(cc3sc(N4CCCCC4)nc13)OCCO2
6. Cn1c2ccc(F)cc2c2ncn(CCN3CCOCC3)c(=O)c21
7. COCCn1nnnc1C(c1cc2cc(OC)ccc2[nH]c1=O)N1CCC(Cc2ccccc2)CC1 (stereo not given)

Response given:
1. -9.12
2. 17.9
3. 6.92
4. 11
5. 2.07
6. 6.95
7. -15.4

Batch request: differential viability (reversal) for each of the following molecules.
1. CCc1nnc(NC(=O)CSc2nnc(-c3ccc(OC)cc3)n2C)s1
2. CC(C)(C)NC(=O)Nc1ccccc1C(N)=O
3. CC(=O)Nc1cccc(OCC(O)Cn2cnc3ccccc32)c1 (stereo not given)
4. CC1(C)Cc2cccc(OCC(=O)O)c2O1
5. CCN(CC)C(=O)CN(c1cc(Cl)ccc1OC)S(C)(=O)=O
6. COC(=O)c1nn(-c2ccc(-c3ccccc3)cc2)cc1O
7. Cc1nn(-c2ccccc2)c(Cl)c1C(=O)NCC(=O)O

Response given:
1: 5.08; 2: 7.05; 3: 5.28; 4: 7.61; 5: 9.04; 6: 4.12; 7: 1.59

Challenge: Request the reported differential viability (reversal) associated with COc1ccccc1OCCn1c(=O)sc2ccccc21
Response given: -8.55

====

experiment: growth suppression of yeast trafficking mutant, preliminary HTS, modulators of trafficking downstream of Golgi apparatus project, 1536-format plate, OD 615 nm (AID 637); settings: yeast transport mutant growth, absorbance 615 nm, 18 h
Calls of active or inactive are those of the source. Cut-off read from the data, not from the text of the source: active = inhibition above about 30%; inactive = the rest.
Select the correct class. Options are yes (active), no (inactive) and nothing else.

Would you please look over these solved cases?
                                   compound  assigned_category
0  CN(c1ccccc1)S(=O)(=O)c1ccc(C(=O)OCC(=O)NCc2ccco2)cc1                 no
1  COc1ccc(N(CC(=O)N2c3ccccc3CC2C)S(=O)(=O)c2c(C)noc2C)cc1 (configuration not stated)                 no
2  N#Cc1c(NC(=O)c2ccc(Br)o2)n(-c2ccccc2)c2nc3ccccc3nc12                 no

Challenge: Write down the call the test reported for this compound. Item: O=C(COC(=O)c1ccccc1O)Nc1ccc(OC(F)F)cc1
Response given: yes

Challenge: Please answer likewise for NC(=O)c1nsnc1-c1ccccc1O
Response given: no

Challenge: Please answer likewise for COc1ccc(OC)c(CNC(=O)COc2cc(=O)n(C)c3ccccc23)c1
Response given: no

Challenge: Please answer likewise for COc1ccc(C(=O)N2CCN(C3CCC(c4ccccc4)CC3)CC2)cc1OC (configuration not stated)
Response given: no
